Sourced from the supplement of paper PMC6757056

B1: library; a variant is named by its letters at N, in order (parent)
chain: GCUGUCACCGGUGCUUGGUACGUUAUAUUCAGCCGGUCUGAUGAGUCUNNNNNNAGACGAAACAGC

Variants of: B1
Assay: normalized RNA/DNA level without ligand (relative to sTRSVctl = 100) (log10 (% of sTRSVctl)); HEK293T overexpressing SLC46A1; higher = less ribozyme self-cleavage, higher mRNA level
Conditions: without (6R,S)-folinic acid; ligand present: no
MEASUREMENT_KIND: normalized RNA/DNA level without ligand (log10)
Reply with just the number.

Give the reported value of normalized RNA/DNA level without ligand (log10) for this record: GCUGUCACCGGUGCUUGGUACGUUAUAUUCAGCCGGUCUGAUGAGUCUUCGAUGAGACGAAACAGC [UCGAUG]
1.8

Give the reported value of normalized RNA/DNA level without ligand (log10) for this record: GCUGUCACCGGUGCUUGGUACGUUAUAUUCAGCCGGUCUGAUGAGUCUUGUAUGAGACGAAACAGC [UGUAUG]
1.71

Give the reported value of normalized RNA/DNA level without ligand (log10) for this record: GCUGUCACCGGUGCUUGGUACGUUAUAUUCAGCCGGUCUGAUGAGUCUGACUAGAGACGAAACAGC [GACUAG]
1.93

Give the reported value of normalized RNA/DNA level without ligand (log10) for this record: GCUGUCACCGGUGCUUGGUACGUUAUAUUCAGCCGGUCUGAUGAGUCUCCAUGCAGACGAAACAGC [CCAUGC]
2.05

Give the reported value of normalized RNA/DNA level without ligand (log10) for this record: GCUGUCACCGGUGCUUGGUACGUUAUAUUCAGCCGGUCUGAUGAGUCUAUCAUAAGACGAAACAGC [AUCAUA]
1.98

Give the reported value of normalized RNA/DNA level without ligand (log10) for this record: GCUGUCACCGGUGCUUGGUACGUUAUAUUCAGCCGGUCUGAUGAGUCUGAAGACAGACGAAACAGC [GAAGAC]
1.97

Give the reported value of normalized RNA/DNA level without ligand (log10) for this record: GCUGUCACCGGUGCUUGGUACGUUAUAUUCAGCCGGUCUGAUGAGUCUUGAUAGAGACGAAACAGC [UGAUAG]
1.71

Give the reported value of normalized RNA/DNA level without ligand (log10) for this record: GCUGUCACCGGUGCUUGGUACGUUAUAUUCAGCCGGUCUGAUGAGUCUGAAUCGAGACGAAACAGC [GAAUCG]
1.97
